In this section we review reported Vd values for a set of molecules.
- Protocol details: Volume of distribution at steady state in rat
- Assay type: ADME, organism-based
- Setup conditions: in vivo, read-out: Vdss
# value in L/kg; strip the unit string

Below, 3 molecules whose answers are already recorded.
Mol smiles: Cc1c(C(=O)Nc2ccn(C)n2)ncn1Cc1cccc(C(F)(F)F)c1
Unit of measurement: L/kg
Vd: 4.5

Mol smiles: Cn1ccc(NC(=O)c2cn(Cc3ccc(Cl)c(C(F)(F)F)c3)nn2)n1
Unit of measurement: L/kg
Vd: 10.2

Mol smiles: Cn1ccc(NC(=O)c2cnn(Cc3ccc(Cl)c(C(F)(F)F)c3)c2)n1
Unit of measurement: L/kg
Vd: 0.7

From here, focus on the item given below.
*Q* Endpoint output: Vd of Cn1ccc(NC(=O)c2cn(Cc3cccc(C(F)(F)F)c3)cn2)n1 . Value?
*A* 8.1

###

- Subject of test: Voltage-gated inwardly rectifying potassium channel KCNH2 (Homo sapiens, UniProt Q12809)
- Sequence (Q12809 whole entry): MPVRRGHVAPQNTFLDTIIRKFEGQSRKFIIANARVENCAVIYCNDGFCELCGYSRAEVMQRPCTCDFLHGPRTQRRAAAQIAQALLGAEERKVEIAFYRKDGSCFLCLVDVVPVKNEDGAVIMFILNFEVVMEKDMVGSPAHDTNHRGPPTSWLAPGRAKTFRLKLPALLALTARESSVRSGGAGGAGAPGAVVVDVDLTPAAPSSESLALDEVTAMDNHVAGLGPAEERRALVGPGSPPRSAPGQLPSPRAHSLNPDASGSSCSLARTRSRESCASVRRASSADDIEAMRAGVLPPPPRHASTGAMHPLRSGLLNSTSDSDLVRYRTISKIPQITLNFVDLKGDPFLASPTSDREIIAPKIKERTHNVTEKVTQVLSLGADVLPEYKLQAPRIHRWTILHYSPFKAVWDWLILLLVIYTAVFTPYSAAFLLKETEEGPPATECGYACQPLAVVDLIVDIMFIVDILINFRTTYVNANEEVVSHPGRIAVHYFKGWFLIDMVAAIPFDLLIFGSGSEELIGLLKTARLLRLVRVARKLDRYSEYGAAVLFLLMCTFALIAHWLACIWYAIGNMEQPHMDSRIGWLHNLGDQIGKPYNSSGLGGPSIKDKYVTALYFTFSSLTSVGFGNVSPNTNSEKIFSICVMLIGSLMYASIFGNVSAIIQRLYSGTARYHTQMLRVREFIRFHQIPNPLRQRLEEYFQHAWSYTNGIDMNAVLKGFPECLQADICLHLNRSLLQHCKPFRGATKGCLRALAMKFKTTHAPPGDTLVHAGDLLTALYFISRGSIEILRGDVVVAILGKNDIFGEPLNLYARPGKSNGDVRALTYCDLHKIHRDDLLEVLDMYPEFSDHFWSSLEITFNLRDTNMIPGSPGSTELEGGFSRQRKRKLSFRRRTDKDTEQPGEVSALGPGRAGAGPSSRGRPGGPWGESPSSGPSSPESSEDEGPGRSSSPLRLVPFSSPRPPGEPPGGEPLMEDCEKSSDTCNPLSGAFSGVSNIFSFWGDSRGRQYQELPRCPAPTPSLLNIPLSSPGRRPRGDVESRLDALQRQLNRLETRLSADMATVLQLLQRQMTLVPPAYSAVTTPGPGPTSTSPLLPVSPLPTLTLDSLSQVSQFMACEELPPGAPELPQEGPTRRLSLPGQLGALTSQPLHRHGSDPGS
- Protocol details: Inhibition of human ERG by patch clamp assay
Readout name: pIC50
Notebook: values listed as pIC50 are -log10 of the concentration (mol/L).

*Q* Record request: pIC50 value, item Cc1c(C(=O)Nc2ccn(C)n2)ncn1Cc1cccc(C(F)(F)F)c1
*A* 4.54

###

// reported clearance for each item listed
- Protocol details: Clearance in rat
- Type: ADME, organism-based
- Setup conditions: in vivo
The reply should be a number in mL/min/kg, with the unit left off.

Mol smiles: Cn1ccc(NC(=O)c2cnn(Cc3ccc(Cl)c(C(F)(F)F)c3)c2)n1
Readout name: clearance
Measured result: 30

Mol smiles: Cn1ccc(NC(=O)c2cn(Cc3ccc(Cl)c(C(F)(F)F)c3)nn2)n1
Readout name: clearance
Measured result: 641

*Q* Query: clearance; subject: Cn1ccc(NC(=O)c2cn(Cc3cccc(C(F)(F)F)c3)cn2)n1
*A* 463

*Q* Form field: reported clearance of Cc1c(C(=O)Nc2ccn(C)n2)ncn1Cc1cccc(C(F)(F)F)c1
*A* 43

###

- Subject of test: CYP2D6 (Homo sapiens, UniProt P10635)
- Sequence (P10635 whole entry): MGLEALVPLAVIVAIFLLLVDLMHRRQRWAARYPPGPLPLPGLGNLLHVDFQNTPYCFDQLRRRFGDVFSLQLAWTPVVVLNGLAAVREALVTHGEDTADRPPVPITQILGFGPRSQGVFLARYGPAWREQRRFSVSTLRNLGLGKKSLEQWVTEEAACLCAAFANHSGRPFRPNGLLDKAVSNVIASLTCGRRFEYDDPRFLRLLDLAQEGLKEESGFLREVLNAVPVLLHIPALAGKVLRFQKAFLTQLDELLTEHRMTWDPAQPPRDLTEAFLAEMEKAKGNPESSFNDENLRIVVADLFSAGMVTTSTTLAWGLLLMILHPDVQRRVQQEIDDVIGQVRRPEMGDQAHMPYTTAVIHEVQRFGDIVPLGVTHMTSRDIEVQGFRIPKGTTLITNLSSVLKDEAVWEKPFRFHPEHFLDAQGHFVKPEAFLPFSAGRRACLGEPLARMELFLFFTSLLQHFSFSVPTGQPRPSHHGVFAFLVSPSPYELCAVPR
- Protocol details: Inhibition of CYP2D6 at 3 uM
- Format: ADME
Readout name: inhibition at 3 µM

*Q* Which inhibition at 3 µM value is on record for Cc1c(C(=O)N=C(N)N)ncn1Cc1ccc(Cl)cc1 ?
*A* < 1%

###

Sequence of the target: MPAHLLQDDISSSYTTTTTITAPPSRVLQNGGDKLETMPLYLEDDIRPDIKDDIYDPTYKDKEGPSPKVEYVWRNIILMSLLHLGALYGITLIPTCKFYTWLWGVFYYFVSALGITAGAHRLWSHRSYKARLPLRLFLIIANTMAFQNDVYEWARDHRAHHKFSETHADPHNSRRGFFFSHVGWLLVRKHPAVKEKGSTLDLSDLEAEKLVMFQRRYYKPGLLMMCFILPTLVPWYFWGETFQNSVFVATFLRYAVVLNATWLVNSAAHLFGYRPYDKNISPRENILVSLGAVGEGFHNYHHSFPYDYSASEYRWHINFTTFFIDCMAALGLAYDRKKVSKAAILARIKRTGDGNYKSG
Readout name: pIC50
Please note pIC50 is a logarithmic value: minus log10 of concentration in mol/L. Answer with that number alone.

*Q* What does the data say about its pIC50? Entry: Cc1c(C(=O)N=C(N)N)ncn1Cc1ccc(Cl)cc1
*A* 6.66

###

- Subject of test: Cytochrome P450 2C9 (Homo sapiens)
pIC50: −log10 of the molar value.
Readout name: pIC50

*Q* Param item = Cc1c(C(=O)Nc2ccn(C)n2)ncn1Cc1cccc(C(F)(F)F)c1 ; retrieve measured pIC50.
*A* < 4.52

###

- Subject of test: CYP3A4 (Homo sapiens)
- Sequence (P08684 whole entry): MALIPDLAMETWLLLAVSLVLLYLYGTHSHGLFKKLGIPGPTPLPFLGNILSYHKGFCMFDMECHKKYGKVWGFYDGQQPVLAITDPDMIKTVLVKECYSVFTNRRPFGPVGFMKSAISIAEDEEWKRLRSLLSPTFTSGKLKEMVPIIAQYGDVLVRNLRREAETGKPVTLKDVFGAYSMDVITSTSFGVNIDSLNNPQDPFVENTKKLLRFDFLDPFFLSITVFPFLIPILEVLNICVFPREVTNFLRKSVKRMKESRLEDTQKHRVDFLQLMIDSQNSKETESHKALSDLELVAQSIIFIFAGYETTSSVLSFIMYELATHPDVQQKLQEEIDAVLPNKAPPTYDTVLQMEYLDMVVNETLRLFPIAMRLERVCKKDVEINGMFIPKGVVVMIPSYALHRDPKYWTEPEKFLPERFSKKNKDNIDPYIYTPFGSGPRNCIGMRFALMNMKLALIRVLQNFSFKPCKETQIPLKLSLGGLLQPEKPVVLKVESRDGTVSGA
- Protocol details: Inhibition of CYP3A4 at 3 uM
- Type: ADME
Readout name: inhibition at 3 µM

*Q* Field request: inhibition at 3 µM | item: Cc1c(C(=O)N=C(N)N)ncn1Cc1ccc(Cl)cc1
*A* < 1%

###

- Subject of test: Acyl-CoA desaturase 1 (Rattus norvegicus, UniProt P07308)
- Sequence (P07308 whole entry): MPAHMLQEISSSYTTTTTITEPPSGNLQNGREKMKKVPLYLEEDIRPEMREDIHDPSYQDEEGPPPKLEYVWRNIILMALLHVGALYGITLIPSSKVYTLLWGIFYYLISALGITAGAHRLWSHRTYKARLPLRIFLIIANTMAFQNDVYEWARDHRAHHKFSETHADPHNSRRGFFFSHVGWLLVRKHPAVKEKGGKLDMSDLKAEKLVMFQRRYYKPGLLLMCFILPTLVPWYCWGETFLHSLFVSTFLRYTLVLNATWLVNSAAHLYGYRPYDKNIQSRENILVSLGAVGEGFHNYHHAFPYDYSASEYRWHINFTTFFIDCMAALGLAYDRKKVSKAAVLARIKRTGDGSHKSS
- Protocol details: Inhibition of rat liver SCD1 assessed as formation of deuterated oleoylCoA by HTMS assay
Readout name: IC50
Please answer in the form of a number followed by its unit of measurement.

*Q* Query (molecule): Cc1c(C(=O)N=C(N)N)ncn1Cc1ccc(Cl)cc1 ; field requested: IC50
*A* 68 nM

###

- Subject of test: CYP2C9 (Homo sapiens, UniProt P11712)
- Sequence (P11712 whole entry): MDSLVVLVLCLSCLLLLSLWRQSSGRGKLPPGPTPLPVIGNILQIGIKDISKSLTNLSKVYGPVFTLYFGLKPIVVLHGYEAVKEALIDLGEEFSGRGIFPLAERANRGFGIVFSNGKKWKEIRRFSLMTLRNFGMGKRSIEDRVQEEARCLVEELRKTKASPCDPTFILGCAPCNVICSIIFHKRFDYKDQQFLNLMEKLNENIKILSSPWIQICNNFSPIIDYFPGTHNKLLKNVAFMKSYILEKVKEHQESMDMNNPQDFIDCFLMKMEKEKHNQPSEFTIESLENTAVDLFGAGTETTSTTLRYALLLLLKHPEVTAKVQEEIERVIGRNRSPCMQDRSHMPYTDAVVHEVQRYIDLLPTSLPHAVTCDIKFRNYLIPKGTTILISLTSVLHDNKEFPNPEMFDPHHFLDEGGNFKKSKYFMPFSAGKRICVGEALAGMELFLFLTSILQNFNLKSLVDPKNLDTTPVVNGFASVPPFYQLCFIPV
- Protocol details: Inhibition of CYP2C9 at 3 uM
- Format: ADME
Readout name: inhibition at 3 µM

*Q* Sample Cc1c(C(=O)N=C(N)N)ncn1Cc1ccc(Cl)cc1 — what was its inhibition at 3 µM?
*A* < 1%

###

- Protocol details: Intrinsic clearance in human liver microsomes assessed per mg of protein
- Type: ADME, Microsome
Readout name: microsomal CLint

*Q* Name the reported microsomal CLint value associated with the compound Cc1c(C(=O)Nc2ccn(C)n2)ncn1Cc1cccc(C(F)(F)F)c1
*A* < 8 µL/min/mg

*Q* Need microsomal CLint, item Cn1ccc(NC(=O)c2cn(Cc3ccc(Cl)c(C(F)(F)F)c3)nn2)n1
*A* < 8 µL/min/mg

*Q* Give its microsomal CLint value. Item: Cn1ccc(NC(=O)c2cn(Cc3cccc(C(F)(F)F)c3)cn2)n1
*A* < 8 µL/min/mg

###

Known log10(IC50) of a selection of compounds
- Subject of test: Acyl-CoA desaturase 1 (Rattus norvegicus, UniProt P07308)
- Protocol details: Inhibition of rat liver SCD1 using [3H]-stearoylCoA
Parameter value (number): base-10 log of IC50 in nM.

Study these solved cases before continuing.
Mol smiles: Cn1ccc(NC(=O)c2cn(Cc3ccc(Cl)c(C(F)(F)F)c3)nn2)n1
Readout name: log10(IC50)
Measured result: 1.52

Mol smiles: Cn1ccc(NC(=O)c2ccn(Cc3cccc(C(F)(F)F)c3)n2)n1
Readout name: log10(IC50)
Measured result: 3.33

*Q* Look up log10(IC50): Cn1ccc(NC(=O)c2cnn(Cc3ccc(Cl)c(C(F)(F)F)c3)c2)n1
*A* 1.80

*Q* Param item = Cc1c(C(=O)Nc2ccn(C)n2)ncn1Cc1cccc(C(F)(F)F)c1 ; retrieve measured log10(IC50).
*A* 1.07

###

- Subject of test: Acyl-CoA desaturase 1 (Rattus norvegicus, UniProt P07308)
- Protocol details: Inhibition of rat liver SCD1 using [3H]-stearoylCoA
Readout name: IC50 (µM)
Could you give me the number in µM? Just the number is fine.

Consider the worked cases shown below.
Mol smiles: Cn1cnc(NC(=O)c2cn(Cc3ccc(Cl)c(C(F)(F)F)c3)cn2)n1
IC50, µM: 0.063
--
Mol smiles: Cn1ccc(NC(=O)c2cn(CC3(CC4CC4)CCC3)cn2)n1
IC50, µM: 0.101

*Q* Give the measured IC50 of Cn1ccc(NC(=O)c2cn(Cc3ccc(Cl)c(C(F)(F)F)c3)cn2)n1 .
*A* 0.016

*Q* Which IC50 value belongs to Cn1ccc(NC(=O)c2cn(Cc3cccc(C(F)(F)F)c3)cn2)n1 ?
*A* 0.011

meta.source: ChEMBL document CHEMBL1681746
